Reported melting point values follow for various compounds

Here is how some compounds turned out for melting point.
OCC(O)CNc1ncnc2c1ncn2C1OC(CO)C(O)C1O (stereo not given)
164 to 165 °C
O=C1CCC(N2Cc3c(OCc4ccc(Cl)cc4)cccc3C2=O)C(=O)N1 (stereo not given)
224 to 226 °C
COCCOc1ccc(/C=C/C(=O)O)c(Oc2ncc(Br)cc2C)c1
157 to 158 °C
O=C(c1ccccc1)c1cccc(OCCn2ccnc(N3CCNCC3)c2=O)c1
69 to 70 °C

Data point: F[C@H]1C[C@H](COc2ccccc2Cl)N(c2ncnc3[nH]cnc23)C1 ; melting point = 143 to 144 °C

----------
Measured property: melting point

See these solved cases before continuing.
O=C(NN=Cc1c(O)cccc1Cl)c1ccc(Cl)cc1
273 to 277 °C
c1ccc(-c2ccc3[nH]c4c(ccc5cc[nH]c54)c3c2)cc1
> 250 °C
CCCOC(=O)Cc1ccc2c(c1)C(=O)c1ccccc1CO2
30 to 32 °C

Summary for this compound, CCCCc1nn2c(C)cccc2c1Cc1ccc(Br)cc1 : melting point is 54 °C

Looking up O=C(O)C(Cc1ccccc1)Oc1c(Br)cc(-c2c(Br)ccc3sc4ccccc4c23)cc1Br (stereo not given) , I see its melting point listed as 98 to 100 °C

meta.source: a melting point compilation (Tetko et al.; mined from patent text by program, amines drawn as free bases though some values may be those of a salt)
